Recorded IC50 values for a group of compounds are listed next.
- Tested on: MCF-7
- protocol.details: MTT cell viability assay, MCF-7
- Format: cell-based
- conditions: Homo sapiens, MCF7, 48 h, read-out: IC50(μM) MCF-7, MTT, 48 h, MCF-7
Report as a plain number; the unit µM is understood.

Solved cases (6 shown):
INSERT INTO results (smiles_entry, target_under_test, recorded_endpoint, assay_result) VALUES
  ('COc1cc(OC)c(C(=O)/C=C/c2coc(Br)c2)c(OC)c1', 'MCF-7', 'IC50', 48.8),
  ('COc1cc(OC)c(C(=O)/C=C/c2ccoc2)c(OC)c1', 'MCF-7', 'IC50', 82.9),
  ('COc1cc(OC)c(C(=O)/C=C/c2cc3ccccc3[nH]c2=O)c(OC)c1', 'MCF-7', 'IC50', 7.92),
  ('COc1cc(OC)c(C(=O)/C=C/C2=CSC(Br)=CC2)c(OC)c1', 'MCF-7', 'IC50', 26.3),
  ('COc1cc(OC)c(C(=O)/C=C/c2ccc(Br)cc2)c(OC)c1', 'MCF-7', 'IC50', 12.8),
  ('COc1cc(OC)c(C(=O)/C=C/c2ccc(OCc3ccsc3)cc2)c(OC)c1', 'MCF-7', 'IC50', 87.8);

I am curious: what IC50 value has been reported for COc1cc(OC)c(C(=O)/C=C/c2ccc(-c3ccccc3)cc2)c(OC)c1 ?
51.6

I am curious: what IC50 value has been reported for COc1cc(OC)c(C(=O)/C=C/c2ccccc2)c(OC)c1 ?
57.8
